These measurements were taken from patent US8846699B2.

system: skin cancer cell line, A431; test: Inhibitory effect on growth of cancer cell line A431, SRB; format: cell-based; settings: Homo sapiens, A-431, 72 h, overexpressed EGFR1 (HER-1)
pIC50: −log10 of the molar value.
Catalogue of pIC50 values

| compound | target-or-system | pIC50 |
| --- | --- | --- |
| C=CC(=O)Nc1cc2c(Nc3ccc(Br)c(Cl)c3F)ncnc2cc1OCCNC(=O)CCO | skin cancer cell line, A431 | 7.35 |
| C=CC(=O)Nc1cc2c(Nc3ccc(Br)cc3F)ncnc2cc1OCCCNC(=O)CC | skin cancer cell line, A431 | 7.36 |
| C=CC(=O)Nc1cc2c(Nc3cc(OC)c(Cl)cc3Cl)ncnc2cc1OCCNC(C)=O | skin cancer cell line, A431 | 7.33 |
| C=CC(=O)Nc1cc2c(Nc3cc(F)c(Br)cc3F)ncnc2cc1OCCNC(C)=O | skin cancer cell line, A431 | 7.85 |
| C=CC(=O)Nc1cc2c(Nc3ccc(Br)c(Cl)c3F)ncnc2cc1OCCNC(=O)NCCC | skin cancer cell line, A431 | 7.46 |
| C=CC(=O)Nc1cc2c(Nc3ccc(Br)cc3F)ncnc2cc1OCCNC(=O)OC | skin cancer cell line, A431 | 6.85 |
| C=CC(=O)Nc1cc2c(Nc3cc(Cl)c(Cl)cc3F)ncnc2cc1OCCNC(=O)CN(C)C | skin cancer cell line, A431 | 8.10 |
| C=CC(=O)Nc1cc2c(Nc3cc(Cl)c(Br)cc3F)ncnc2cc1OCCNC(C)=O | skin cancer cell line, A431 | 7.77 |
| C=CC(=O)Nc1cc2c(Nc3ccc(Br)cc3F)ncnc2cc1OCCNC(=O)C1CCCN1C(=O)CC (stereo not drawn) | skin cancer cell line, A431 | 6.58 |
| C=CC(=O)Nc1cc2c(Nc3ccc(Br)cc3F)ncnc2cc1OCCNC(=O)CCN(C)C | skin cancer cell line, A431 | 8.22 |
| C=CC(=O)Nc1cc2c(Nc3ccc(Br)cc3F)ncnc2cc1OCCOC | skin cancer cell line, A431 | 7.51 |
| C=CC(=O)Nc1cc2c(Nc3ccc(Br)cc3F)ncnc2cc1OCCNC(=O)N1CCNCC1 | skin cancer cell line, A431 | 6.13 |
| C=CC(=O)Nc1cc2c(Nc3ccc(Br)cc3F)ncnc2cc1OCCNC | skin cancer cell line, A431 | 6.90 |
| C=CC(=O)Nc1cc2c(Nc3ccc(Br)cc3F)ncnc2cc1OCC(CC)NC(=O)CN(C)C (stereo not drawn) | skin cancer cell line, A431 | 7.26 |
| C=CC(=O)Nc1cc2c(Nc3ccc(F)c(Cl)c3)ncnc2cc1OCCNC(C)=O | skin cancer cell line, A431 | 8.05 |
| C=CC(=O)Nc1cc2c(Nc3ccc(Br)cc3F)ncnc2cc1OCCNC(=O)C(=O)O | skin cancer cell line, A431 | 6.90 |
| C=CC(=O)Nc1cc2c(Nc3ccc(Br)c(Cl)c3F)ncnc2cc1OCCNC(=O)CCN(CC)CC | skin cancer cell line, A431 | 8.22 |
| C=CC(=O)Nc1cc2c(Nc3cc(Cl)c(Cl)cc3F)ncnc2cc1OCCNC(=O)CS(C)(=O)=O | skin cancer cell line, A431 | 7.32 |
| C=CC(=O)Nc1cc2c(Nc3ccc(Br)c(Cl)c3F)ncnc2cc1OCCNC(=O)CCN1CCCCC1 | skin cancer cell line, A431 | 7.40 |
| C=CC(=O)Nc1cc2c(Nc3ccc(Br)cc3F)ncnc2cc1OCCNC(=O)CS(C)(=O)=O | skin cancer cell line, A431 | 7.57 |
| C=CC(=O)Nc1cc2c(Nc3ccc(F)c(F)c3F)ncnc2cc1OCC1CCN(C(C)=O)CC1 | skin cancer cell line, A431 | 7.42 |
| C=CC(=O)Nc1cc2c(Nc3ccc(Br)cc3F)ncnc2cc1OCCNC(=O)CN1CCCCC1 | skin cancer cell line, A431 | 8.10 |
| C=CC(=O)Nc1cc2c(Nc3ccc(Br)cc3F)ncnc2cc1OCCNC(=O)C(CO)N(C)C (stereo not drawn) | skin cancer cell line, A431 | 6.81 |
| C=CC(=O)NCCOc1cc2ncnc(Nc3ccc(Br)cc3F)c2cc1NC(=O)C=C | skin cancer cell line, A431 | 7.31 |
| C=CC(=O)Nc1cc2c(Nc3ccc(Br)c(Cl)c3F)ncnc2cc1OCCNC(=O)CN(C)C | skin cancer cell line, A431 | 7.96 |
| C=CC(=O)Nc1cc2c(Nc3ccc(Br)cc3F)ncnc2cc1OCCNS(C)(=O)=O | skin cancer cell line, A431 | 7.47 |
| C=CC(=O)Nc1cc2c(Nc3ccc(Br)c(Cl)c3F)ncnc2cc1OCCNC(=S)NCC | skin cancer cell line, A431 | 7.05 |
| C=CC(=O)Nc1cc2c(Nc3ccc(Br)cc3F)ncnc2cc1OCCNC(=O)CN1CCC1 | skin cancer cell line, A431 | 5.99 |
| C=CC(=O)Nc1cc2c(Nc3cc(OC)c(Cl)cc3OC)ncnc2cc1OCCNC(C)=O | skin cancer cell line, A431 | 7.04 |
| C=CC(=O)Nc1cc2c(Nc3ccc(Br)cc3F)ncnc2cc1OCc1ccncc1 | skin cancer cell line, A431 | 6.77 |
| C=C(C)C(=O)Nc1cc2c(Nc3ccc(Br)cc3F)ncnc2cc1OCCNC(C)=O | skin cancer cell line, A431 | 5.54 |
| C=CC(=O)Nc1cc2c(Nc3ccc(Br)cc3F)ncnc2cc1OCCCCNC(C)=O | skin cancer cell line, A431 | 7.35 |
| C=CC(=O)Nc1cc2c(Nc3ccc(Br)cc3F)ncnc2cc1OCCNC(=O)C(COC)N(C)C (stereo not drawn) | skin cancer cell line, A431 | 7.02 |
